tested on: CAKI-1; test: NCI tumour cell line growth inhibition, 48 h
Calls of active or inactive are those of the source. Rule as the data show it: active = GI50 up to about 1.1 µM and inactive = higher.
Result category, one only: 1 = active, -1 = inactive

Sample answers from the record:
Molecule	Assigned Category
CN(C)CCNC(=O)c1cc([N+](=O)[O-])cn1C	-1
CC(C)(C)CC(C)(C)c1ccc(O)c(C[N+](C)(C)[O-])c1	-1
O=C(O)COc1ccc(C(=O)/C(SS/C(C(=O)c2ccc(OCC(=O)O)c(Cl)c2Cl)=C2\C=C(c3ccc(F)cc3)SS2)=C2/C=C(c3ccc(F)cc3)SS2)c(Cl)c1Cl	-1
[O-][S+]1c2ccccc2N=C(c2ccc3ccccc3c2)CC1C1=CC=CCC1 (stereo not given)	-1
CN1C(=O)C2(Cc3cn(C45CC67SSC(CO)(C(=O)N6C4Nc4ccccc45)N(C)C7=O)c4ccccc34)SSC1(CO)C(=O)N2C (stereo not given)	1

[Q] What was the test verdict on C=C1C(=O)OC2/C=C(\CO)C3OC3C3OC3(C)CC(OC(=O)/C(=C/C)CO)C12 (stereo not given) ?
[A] -1

[Q] What was the test verdict on C/C(=C\C(C[C@](C)(O)C(O)CCC#C[Si](C)(C)C)S(=O)(=O)c1ccccc1)CC/C=C/CO[Si](C)(C)C(C)(C)C (stereo not given in full) ?
[A] -1

[Q] What was the test verdict on O=C1CSC(c2cc3cc(Br)ccc3nc2Cl)N1c1ccc(F)c(Cl)c1 (stereo not given) ?
[A] -1

[Q] What was the test verdict on Cc1ccccc1NC(=O)C(=O)CC(=O)C1CCOC1=O (stereo not given) ?
[A] -1

[Q] What was the test verdict on `COc1ccc(-n2c(CCC(=O)O)nc3c2C(=O)c2ccccc2C3=O)cc1` ?
[A] -1

[Q] What was the test verdict on `CC(=O)CN/C(C)=N/Nc1ccc([N+](=O)[O-])cc1[N+](=O)[O-]` ?
[A] -1

[Q] What was the test verdict on `C#CCn1c(=O)c(C)cn(/C(=C/C(=O)OCC)C(=O)OCC)c1=O` ?
[A] -1

[Q] What was the test verdict on `C[N+](C)(C)CCOP(=O)([O-])OCCNC(=O)c1ccc2ccccc2c1` ?
[A] -1

[Q] What was the test verdict on `COc1ccc(NC(=S)N/N=C\c2ccc(NC(C)=O)cc2)cc1` ?
[A] -1

[Q] What was the test verdict on O=C(O)CC1NC(/C(=C/c2ccccc2O)NC(=O)c2ccccc2)OC1=O (stereo not given) ?
[A] -1

[Q] What was the test verdict on `Clc1ccc(-c2cc(-c3cc4cc(Br)ccc4nc3Cl)on2)cc1` ?
[A] -1

[Q] What was the test verdict on O=C1CSC2(CC(/C=C/c3cccc(Br)c3)=NN2c2cccc(S(=O)(=O)O)c2)N1c1nc2ccccc2s1 (stereo not given) ?
[A] -1

[Q] What was the test verdict on `Cn1ncc2c(Nc3ccc(Cl)cc3)c3ccccc3nc21` ?
[A] -1

[Q] What was the test verdict on `CCCCCCNC(=O)c1cc(CCc2cc(O)ccc2O)ccc1O` ?
[A] -1

[Q] What was the test verdict on `Cc1ccc(NC(=O)CSC(N)=O)cc1C` ?
[A] -1

[Q] What was the test verdict on `O=C(/C=C/c1c(O)ccc2ccccc12)c1ccccc1Cl` ?
[A] -1

[Q] What was the test verdict on `Cc1nc2cccc(F)c2c(=O)n1-c1nnc(C2CC2)s1` ?
[A] -1

[Q] What was the test verdict on `NC1(CCCCCCCCCCC(=O)O)CNCCNCCNCCNC1` ?
[A] -1

[Q] What was the test verdict on `Cn1cnc([N+](=O)[O-])c1Sc1nc2ccccc2[nH]1` ?
[A] -1

[Q] What was the test verdict on CCc1ccc(/C=C/C(=O)C2CN(CC)CCC2(O)/C=C/c2ccc(CC)cc2)cc1 (stereo not given) ?
[A] -1

---

system: MDA-N; assay: NCI tumour cell line growth inhibition, 48 h
Active and inactive are the calls of the source. Cut-off read from the data, not from the text of the source: active = GI50 up to about 1.1 µM and inactive = higher.
Result category, one only: active, inactive

[Q] What was the test verdict on Cc1ccc(S(=O)(=O)NC(=O)NC(C(=O)O)C(C)C)cc1 (centres undefined) ?
[A] inactive

[Q] What was the test verdict on `CN(C)CCCNc1ccc2c(=O)n(CCN(C)C)c(=O)n3c4ccccc4c(=O)c1c23` ?
[A] active

[Q] What was the test verdict on `Nc1ccc(Nc2c3ccccc3nc3ccccc23)cc1` ?
[A] inactive

[Q] What was the test verdict on `CC(C)=CC[C@]12CCN[C@H]1N(S(=O)(=O)c1ccccc1)c1ccccc12` ?
[A] inactive

[Q] What was the test verdict on `Clc1ccc(-c2cc(-c3cc4cc(Br)ccc4nc3Cl)on2)cc1` ?
[A] inactive

---

tested on: OVCAR-3; assay: NCI tumour cell line growth inhibition, 48 h
The source made the active and inactive calls. Rule as the data show it: active = GI50 up to about 1.1 µM and inactive = higher.
Experimental Readout: GI50

Solved entries (count: 5):
Compound	Experimental Readout	Recorded Value
CN(CC(=O)O)S(=O)(=O)c1ccc2ccccc2c1	GI50	> 100 µM (inactive)
Cc1nc(Cl)c2sc(=S)n(-c3ccc(F)cc3)c2n1	GI50	1.94 µM (inactive)
O=C(Oc1c(Cl)cc(C2(c3cc(Cl)c(OC(=O)c4ccccc4)c(Cl)c3)CCCCC2)cc1Cl)c1ccccc1	GI50	10.9 µM (inactive)
Cc1ccc(-c2c(C#N)c(S)n(NS(=O)(=O)c3ccc(C)cc3)c(=O)c2C#N)cc1	GI50	34.7 µM (inactive)
O=C(O)CCC(=O)Nc1ccc2c(c1)S(=O)(=O)N(CC(=O)O)C2=O	GI50	> 100 µM (inactive)

Query `CCN(CC)CCOC(=O)CCN1CC2CCC(CC2)C1` yields GI50 of > 100 µM (inactive)

Query `O=[N+]([O-])c1sc2ccc(Cl)cc2c1Nc1ccc(Cl)cc1` yields GI50 of > 100 µM (inactive)

Query `COc1ccc(/C=N/NC(=O)O)cc1` yields GI50 of > 100 µM (inactive)

Query COc1ccc(-c2coc3cc(OC)cc(O)c3c2=O)cc1 [4',7-DIMETHOXY-5-HYDROXYGENISTEIN] yields GI50 of > 100 µM (inactive)

Query Cc1ccccc1NC(=O)C(=O)CC(=O)C1CCOC1=O (stereo not given) yields GI50 of > 100 µM (inactive)

---

test system: CAKI-1; assay: NCI tumour cell line growth inhibition, 48 h
Active and inactive are the calls of the source. Cut-off read from the data, not from the text of the source: active = GI50 up to about 1.1 µM and inactive = higher.
Result category, one only: active, inactive

Molecule	Assigned Category
Cc1ccc(NC(=O)C2C(=O)N(c3ccc(C)cc3)C(=O)/C2=N\NC(N)=S)cc1 (stereo not given)	inactive

Pending molecule:
[Q] What was the test verdict on `CC#CC#C/C(=C/C=CC(=O)OC)SC` ?
[A] inactive

---

Parameter GI50: see the listing below.
system: SN12C; assay: NCI tumour cell line growth inhibition, 48 h
The source made the active and inactive calls. Rule as the data show it: active = GI50 up to about 1.1 µM and inactive = higher.

Solved entries (count: 10):
Compound	Experimental Readout	Recorded Value
OCCN(/N=C\c1ccc2ccccc2c1)C1=NCCN1	GI50	25.3 µM (inactive)
Cc1c(Cl)c(S(N)(=O)=O)cc2c1N=CNS2(=O)=O	GI50	> 100 µM (inactive)
CCc1c(C)[nH]c2c1/C(=N/N=C1\CCCc3[nH]c(C)c(CC)c31)CCC2	GI50	29.2 µM (inactive)
CC(O)CNC(=O)C(C)Oc1ccc(OCC2CCCCC2)cc1 (centres undefined)	GI50	> 100 µM (inactive)
Clc1cccc(Cl)c1C1SCc2nc3ccccc3n21 (centres undefined)	GI50	> 100 µM (inactive)
Fc1ccc2c(c1)cc1ccc3cccc4ccc2c1c34	GI50	> 100 µM (inactive)
CCOC(=O)CC(NC(=O)c1nc[nH]c1/N=N/N(C)C)C(=O)OCC (centres undefined)	GI50	> 100 µM (inactive)
CC(O)c1cc2c(s1)C(=O)c1ccsc1C2=O (centres undefined)	GI50	0.104 µM (active)
CC(C)c1c(O)c(O)c2c(c1O)C(=O)C(O)=C1C(C)(C)CCC[C@@]12C	GI50	3.23 µM (inactive)
O=c1c(O)c(-c2cc(O)c(O)cc2O)oc2cc(O)c(C3OC(CO)C(O)C(O)C3O)c(O)c12 (centres undefined)	GI50	> 100 µM (inactive)

Query `[O-][n+]1c(-c2ccccc2)oc2ccccc21` yields GI50 of 14.4 µM (inactive)

Query `COc1ccc(CNc2cnc3ccc(N)cc3n2)cc1` yields GI50 of > 100 µM (inactive)

Query CC1=C(C#N)C2C(=C(N)Oc3ccccc32)C(N)=N1 (centres undefined) yields GI50 of 23.7 µM (inactive)

Query CCC1c2[nH]c3ccccc3c2C[C@H]2C(=O)NC(C)C(=O)N12 (some centres undefined) yields GI50 of > 100 µM (inactive)

Query `CN(CC(=O)O)S(=O)(=O)c1ccc2ccccc2c1` yields GI50 of > 100 µM (inactive)

Query `O=[N+]([O-])c1c(O)c2nonc2c2nn(-c3ccccc3)nc12` yields GI50 of > 100 µM (inactive)
